Entry source: patent US20140303090A1

tested on: MDP-mediated NF-κB-luc (NOD2); assay: MDP-stimulated NF-kB luciferase reporter gene assay (NOD2 signaling) in HCT116 cells; type: cell-based, human; settings: 10 μM Smac mimetic, HCT116 cells
experimentalReadout: Inhibition of MDP-mediated NF-κB-luc, % Inhibition

compound | recordedValue
CN[C@@H](C)C(=O)N[C@H](C(=O)N1C[C@@H](O)C[C@H]1Cc1c(Cc2[nH]c3cc(F)ccc3c2C[C@@H]2C[C@H](O)CN2C(=O)[C@@H](NC(=O)[C@H](C)NC)C(C)(C)C)[nH]c2cc(F)ccc12)C(C)(C)C [(12)] | 98 (+/−2) %
CN[C@@H](C)C(=O)N[C@H](C(=O)N1C[C@@H](O)C[C@H]1Cc1c(Cc2[nH]c3cc(F)ccc3c2C[C@@H]2C[C@H](O)CN2C(=O)[C@@H](NC(=O)[C@H](C)NC)C(C)(C)C)[nH]c2cc(F)ccc12)C(C)(C)C [(14)] | 86 (+/−9) %
CN[C@@H](C)C(=O)N[C@H](C(=O)N1CCC[C@H]1Cc1c(-c2ccc(-c3c(C[C@@H]4CCCN4C(=O)[C@@H](NC(=O)[C@H](C)NC)C(C)(C)C)c4ccc(F)cc4n3CCO)cc2)n(CCO)c2cc(F)ccc12)C(C)(C)C [Compound A (2), reference compound] | 99 (+/−1) %
CN[C@@H](C)C(=O)N[C@H](C(=O)N1C[C@@H](O)C[C@H]1Cc1c(Cc2[nH]c3cc(F)ccc3c2C[C@@H]2C[C@H](O)CN2C(=O)[C@@H](NC(=O)[C@H](C)NC)C(C)(C)C)[nH]c2cc(F)ccc12)C(C)(C)C [(11)] | 100 (n = 2) %

---

target: GFP-cIAP2 (Homo sapiens); construct: expressed in transfected cells; experiment: GFP-cIAP2 degradation assay (loss of GFP signal, flow cytometry); format: cell-based; conditions: read-out: ΔGFP-cIAP2 EC50, 2 h; 2 h; A375 cells
Sequence (Q13489 whole entry): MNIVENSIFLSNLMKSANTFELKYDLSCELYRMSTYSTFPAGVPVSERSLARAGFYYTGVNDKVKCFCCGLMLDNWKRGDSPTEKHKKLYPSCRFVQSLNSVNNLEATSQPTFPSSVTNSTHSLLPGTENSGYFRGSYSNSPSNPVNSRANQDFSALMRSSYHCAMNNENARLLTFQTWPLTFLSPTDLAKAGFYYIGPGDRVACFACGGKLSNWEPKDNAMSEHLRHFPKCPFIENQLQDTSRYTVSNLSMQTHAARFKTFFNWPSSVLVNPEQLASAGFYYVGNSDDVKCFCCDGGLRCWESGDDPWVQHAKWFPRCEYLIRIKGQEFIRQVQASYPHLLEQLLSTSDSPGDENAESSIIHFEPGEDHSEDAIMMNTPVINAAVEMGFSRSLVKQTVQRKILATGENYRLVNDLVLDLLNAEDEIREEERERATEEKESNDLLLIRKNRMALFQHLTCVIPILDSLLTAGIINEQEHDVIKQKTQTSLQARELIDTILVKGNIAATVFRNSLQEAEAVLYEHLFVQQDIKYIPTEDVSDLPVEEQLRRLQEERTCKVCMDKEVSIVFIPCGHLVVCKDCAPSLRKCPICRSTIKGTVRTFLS
DC50 overview

compound | boundType | DC50 / µM
CC[C@@H](NC(=O)[C@H](C)NC)C(=O)N1C[C@@H](O)C[C@H]1Cc1c(-c2[nH]c3cc(F)ccc3c2C[C@@H]2C[C@H](O)CN2C(=O)[C@@H](CC)NC(=O)[C@H](C)NC)[nH]c2cc(F)ccc12 | = | 5.72
CC[C@H](NC(=O)[C@H](C)NC)C(=O)N1C[C@@H](O)C[C@H]1Cc1c(-c2[nH]c3cc(F)ccc3c2C[C@@H]2C[C@H](O)CN2C(=O)[C@@H](CC)NC(=O)[C@H](C)NC)[nH]c2cc(F)ccc12 | > | 10
CC[C@@H](NC(=O)[C@@H](C)NC)C(=O)N1C[C@H](O)C[C@@H]1Cc1c(-c2[nH]c3cc(F)ccc3c2C[C@H]2C[C@@H](O)CN2C(=O)[C@@H](CC)NC(=O)[C@@H](C)NC)[nH]c2cc(F)ccc12 | > | 10
CN[C@@H](C)C(=O)N[C@H](C(=O)N1CCC[C@H]1Cc1c(-c2ccc(-c3c(C[C@@H]4CCCN4C(=O)[C@@H](NC(=O)[C@H](C)NC)C(C)(C)C)c4ccc(F)cc4n3CCO)cc2)n(CCO)c2cc(F)ccc12)C(C)(C)C [Compound A (2), reference compound] | = | 0.043
